# assay details: gradient 5% acetonitrile 3 min, to 50% in 2 min, to 85% in 15 min, held 3 min, 100 µL/min
# assay setup: column: Zorbax Extend-C18 2.1 x 50 mm; eluents: water / acetonitrile, 0.1% formic acid
quantity kind: RP-LC retention time (s)

Illustrative cases are given below, each with its answer.
| molecule | result units | RP-LC retention time |
| --- | --- | --- |
| COc1ccc(S(=O)(=O)N2CCCC(C(=O)NC3CCCC3)C2)cc1C (centres undefined) | s | 901 |
| O=C(NCc1ccc2c(c1)OCO2)c1ccc(S(=O)(=O)NCC2CCCO2)cc1 (centres undefined) | s | 688 |

[1] Cn1nnnc1NCc1ccc2c(c1)n(C)c(=O)n2C
[2] Cc1ccccc1-c1noc(Cc2nnc(-c3ccc(F)cc3)o2)n1
Challenge: Given the two records 1 and 2 , choose the one whose RP-LC retention time value is lower. Give the label of your selection.
Response given: 1
(1: 597 s, 2: 1040 s)

[P] CCn1cc(-c2ccc(C)cc2)cc1C(=O)NCCCN1CCOCC1
[Q] CCCCCOc1ccc(C(=O)N(Cc2ccc(C)o2)C2CCS(=O)(=O)C2)cc1 (centres undefined)
Challenge: Given the two records P and Q , choose the one whose RP-LC retention time value is lower. Give the label of your selection.
Response given: P

---

# assay details: gradient 5% acetonitrile 3 min, to 50% in 2 min, to 85% in 15 min, held 3 min, 100 µL/min
# assay setup: column: Zorbax Extend-C18 2.1 x 50 mm; eluents: water / acetonitrile, 0.1% formic acid
quantity kind: RP-LC retention time (s)

| molecule | quantity kind | result units | reading |
| --- | --- | --- | --- |
| CCOC(=O)[C@H](C)C[C@@H](Cc1ccc(-c2ccccc2)cc1)NC(=O)CCC(=O)O | RP-LC retention time | s | 1010 |
| O=S(=O)(c1cc(-c2cc(C(F)(F)F)on2)cs1)N1CCN(C2CCCCC2)CC1 | RP-LC retention time | s | 775 |
| CC(=O)Nc1ccc(-c2noc(C3CCN(C(=O)CCC4CCCC4)CC3)n2)cc1 | RP-LC retention time | s | 924 |
| CCOc1ccccc1NC(=O)C1CCCN(c2nc3c(s2)c(C)nn3-c2ccccc2)C1 (centres undefined) | RP-LC retention time | s | 1300 |
| COc1ccc2[nH]c(=O)c(CCC(=O)NCc3cccs3)cc2c1 | RP-LC retention time | s | 805 |
| O=C(Nc1sc2c(c1CN1CCN(c3ccccn3)CC1)CCCC2)c1ccco1 | RP-LC retention time | s | 671 |
| CCNC(=O)c1ccc(-n2nc(C)c(C)c2C)nc1 | RP-LC retention time | s | 758 |
| Cc1ccccc1CNC(=O)C1(C)CCCN(C(=O)Nc2cccc(Cl)c2)C1 (centres undefined) | RP-LC retention time | s | 1030 |
| O=C(NCc1ccccn1)c1ccc2c(c1)N(C(=O)c1ccc(F)cc1)CC2 | RP-LC retention time | s | 653 |
| CC(C)c1nc(-c2ccc(OC3CCNC3)cc2)no1 (centres undefined) | RP-LC retention time | s | 631 |

[a] CCc1ccc(NC(=O)Cn2nc3c(Oc4cc(C)cc(C)c4)nccn3c2=O)cc1
[b] CCCCC(=O)N1CCN(c2nc(C)cc(NCC)n2)CC1
Challenge: Recorded RP-LC retention time values differ for a and b ; which one is higher? Give the label of your selection.
Response given: a
